Ranking score listing for selected compounds.
target_under_test: human NTCP (Homo sapiens)
Sequence (Q14973 whole entry): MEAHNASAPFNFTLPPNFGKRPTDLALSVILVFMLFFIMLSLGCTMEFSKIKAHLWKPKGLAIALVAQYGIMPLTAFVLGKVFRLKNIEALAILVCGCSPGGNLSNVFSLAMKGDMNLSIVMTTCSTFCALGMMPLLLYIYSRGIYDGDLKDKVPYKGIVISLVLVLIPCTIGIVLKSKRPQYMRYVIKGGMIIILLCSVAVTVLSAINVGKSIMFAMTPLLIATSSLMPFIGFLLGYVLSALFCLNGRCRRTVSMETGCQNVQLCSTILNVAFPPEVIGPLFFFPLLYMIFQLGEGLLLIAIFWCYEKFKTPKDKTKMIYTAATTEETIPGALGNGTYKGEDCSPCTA
protocol_text: Screening taurocholate uptake assay (96-well, [14C]taurocholate, 10 µM drug)
applied_conditions: combined ranking of functional and binding screening assays
Where a name gives a salt, the structure may show the parent alone.
readout_type: Ranking score

>>> experimental_result("Cn1c(NCCN(CCO)CCCc2ccc([N+](=O)[O-])cc2)cc(=O)n(C)c1=O")
503.354
>>> experimental_result("CCC1(c2cccc(O)c2)CCCCN(C)C1 (stereo not drawn) [Meptazinol hydrochloride]")
474.66
>>> experimental_result("CCOCCn1c(N2CCCN(C)CC2)nc2ccccc21")
501.772
>>> experimental_result("Oc1c(Cl)cc(Cl)c2cccnc12")
538.476
>>> experimental_result("c1ccc2c(c1)Nc1ccccc1S2")
553.972
>>> experimental_result("CC(=O)OCC(CCn1cnc2cnc(N)nc21)COC(C)=O")
539.09
>>> experimental_result("CCC1(CC)C(=O)C=CNC1=O")
558.14
>>> experimental_result("CC(=O)OC(C)C[N+](C)(C)C (stereo not drawn) [Methacholine chloride]")
628.097
>>> experimental_result("CCCCC[C@H](O)/C=C/[C@@H]1[C@@H](C/C=C\\CCCC(=O)O)[C@@H](O)C[C@H]1O")
615.067
>>> experimental_result("CS(=O)(=O)c1ccc([C@@H](O)[C@@H](CO)NC(=O)C(Cl)Cl)cc1")
545.996
>>> experimental_result("CS(=O)(=O)O.O=C(O[C@H]1C[C@H]2CC3C[C@@H](C1)N2CC3=O)c1c[nH]c2ccccc12 [Dolasetron mesilate]")
1169.41
>>> experimental_result("C=CCOC(Cn1ccnc1)c1ccc(Cl)cc1Cl (stereo not drawn)")
592.625
>>> experimental_result("C=C1c2c(Cl)ccc(O)c2C(=O)C2=C(O)[C@]3(O)C(=O)C(C(N)=O)=C(O)[C@@H](N(C)C)[C@@H]3[C@@H](O)[C@H]12.O=C(O)c1cc(S(=O)(=O)O)ccc1O [Meclocycline sulfosalicylate]")
647.296
>>> experimental_result("CN1CCCN=C1/C=C/c1cccs1.O=C(O)C(O)C(O)C(=O)O [Pyrantel tartrate]")
600.829
>>> experimental_result("CN1CCN2c3ncccc3Cc3ccccc3C2C1 (stereo not drawn)")
576.426
>>> experimental_result("O=C(NCCO[N+](=O)[O-])c1cccnc1")
1149.4
>>> experimental_result("COc1c(N2CCNC(C)C2)c(F)cc2c(=O)c(C(=O)O)cn(C3CC3)c12 (stereo not drawn)")
627.155
>>> experimental_result("CNCC(O)c1ccc(OC(=O)C(C)(C)C)c(OC(=O)C(C)(C)C)c1 (stereo not drawn) [Dipivefrin hydrochloride]")
1200.98
